# MEASURED TARGET: Fc-fusion protein of human carbonic anhydrase IX (human, UniProt Q16790 38-414)
# TEST DETAILS: SPR, captured hCAIX-Fc; t1/2 category A: >15.0 min
Starred links: 1 amine or outer side, 2 acyl side, 3 side chain; linkers in the order of their positions; H or OH if unused. Positions of bridges follow the written chain, without caps; N, C: chain ends. Non-standard residues stand in square brackets, D forms with d. Primed or numbered codes have the meaning given here. No end group written: not given here. *: point of attachment. Phe(3-NHCO(CH2)3SO2NH2) = N[C@@H](Cc1cccc(NC(=O)CCCS(N)(=O)=O)c1)C(=O)O; DOTA = O=C(O)CN1CCN(CC(=O)O)CCN(CC(=O)*)CCN(CC(=O)O)CC1; mXylylene = c1cc(C[*:1])cc(C[*:2])c1; PPAc″ = not defined here; Dap = NC[C@H](N)C(=O)O
PROPERTY LABEL: t1/2 (half-life of the complex, SPR)

BINDER: VDCE[dP]DWLTW[Dap]C-NH2 (lactam 2-11; linker 3-12 via mXylylene; not fully specified (N-terminus); also: indium complexed by DOTA) [3BP-4337]
PROPERTY LABEL: t1/2 (half-life of the complex, SPR)
MEASURED VALUE: > 15 min
//
BINDER: {DOTA-PPAc″}-QCE[dP]D[Phe(3-NHCO(CH2)3SO2NH2)]LTWSC-NH2 (linker 2-11 via mXylylene; reading uncertain, also called DPI-4452) [3BP-4452]
PROPERTY LABEL: t1/2 (half-life of the complex, SPR)
MEASURED VALUE: > 15 min
